All values here come from patent US5455222A.

# Test system: marine organisms
# experiment.summary: Marine antifouling activity, coated test panels exposed to marine environment
# recorded.conditions: 15 weeks; top panel (white background); scale 10 (completely free of growth) to 0 (completely covered)
So I've got a bunch of compounds here, and I need their Marine Antifouling Rating, 15 Week Test, Top Panel values.
Number only, please.

Marine Antifouling Rating, 15 Week Test, Top Panel recorded for this compound, "Cc1cccc(-n2nnnc2SCSC#N)c1" , is 8

The recorded Marine Antifouling Rating, 15 Week Test, Top Panel for entry "N#CSCSc1nnnn1-c1cccc(Cl)c1" equals 9

Record "N#CSCSc1nnnn1C1CCCCC1" . Reported Marine Antifouling Rating, 15 Week Test, Top Panel: 4

For record "N#CSCSc1nnnn1-c1ccc(Cl)cc1" the listed Marine Antifouling Rating, 15 Week Test, Top Panel is 4
